# test-target: GHSR1a (Homo sapiens)
# Construct: expressed in transfected cells; host or cells: HEK293
# Sequence (Q92847 whole entry): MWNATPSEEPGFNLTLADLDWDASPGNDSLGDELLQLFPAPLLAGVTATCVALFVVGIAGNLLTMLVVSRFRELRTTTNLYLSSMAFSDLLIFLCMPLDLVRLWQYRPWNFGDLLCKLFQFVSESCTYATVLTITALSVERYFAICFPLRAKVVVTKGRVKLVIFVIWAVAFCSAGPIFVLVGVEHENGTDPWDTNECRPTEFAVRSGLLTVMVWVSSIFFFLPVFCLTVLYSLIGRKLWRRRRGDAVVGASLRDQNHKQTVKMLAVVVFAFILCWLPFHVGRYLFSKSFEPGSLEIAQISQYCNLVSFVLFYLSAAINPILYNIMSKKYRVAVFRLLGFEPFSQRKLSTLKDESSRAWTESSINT
# assay-name: Calcium FLIPR assay, GHSR-1a agonism
# Format: cell-based
# study-conditions: HEK293/GHSR1a cells
# reported EC50; entries follow

{"columns": ["molecule", "unit", "censor-symbol", "EC50"],
 "data": [
  ["C[C@H](NC(=O)N(C)C1CCN(C)C1)c1ccc(-c2cncc(F)n2)c(Cl)c1Cl (stereo partly shown)", "nM", ">", 30000],
  ["CC(NC(=O)N(C)C1CCN(C)CC1)c1ccc(CO)c(Cl)c1Cl (stereo not shown)", "nM", "=", 15],
  ["CC(NC(=O)N(C)C1CCN(C)CC1)c1ccc(-c2cnc(N)s2)c(Cl)c1Cl (stereo not shown)", "nM", "=", 7],
  ["COc1ccc(C(NC(=O)N(C)C2CCN(C)CC2)C(N)=O)c(Cl)c1Br (stereo not shown)", "nM", "=", 353]
]}
